Biological target: PI3Kδ (Homo sapiens (Human))

[
  {
    "smiles_string": "Cc1c(N2CC(C)(C)CCC2=O)nc2cc(F)cc(F)c2c1N1CC2(CCOCC2)c2ncc(N3CCOCC3)cc21",
    "Ki, nM": 2.7
  },
  {
    "smiles_string": "Cc1c(-c2cc(F)cc(F)c2)nc2ncccc2c1N1CC(C)(C)c2ncc(N3CCOCC3)cc21",
    "Ki, nM": 3.11
  },
  {
    "smiles_string": "Cc1c(N2CCCCC2)nc2cc(F)cc(F)c2c1N1CC(C)(C)c2ccc(N3CCOCC3)cc21",
    "Ki, nM": 73.7
  },
  {
    "smiles_string": "Cc1c(-c2ccccn2)nc2cc(F)ccc2c1N1CC2(CS(=O)(=O)C2)c2ccc(N3CCOCC3)cc21",
    "Ki, nM": 80.5
  },
  {
    "smiles_string": "Cc1ccc(S(C)(=O)=O)c(-c2nc3cc(F)cc(F)c3c(N3CC4(CCOCC4)c4ncc(N5CCOCC5)cc43)c2C)c1",
    "Ki, nM": 1.51
  },
  {
    "smiles_string": "Cc1c(C(F)(F)F)nc2ccc(Cl)cc2c1N1CC(C)(C)c2ccc(N3CCOCC3)cc21",
    "Ki, nM": 985
  },
  {
    "smiles_string": "Cc1c(Cc2cccc(C(F)(F)F)c2)nc2cc(F)cc(F)c2c1N1CC(C)(C)c2ncc(N3CCOCC3)cc21",
    "Ki, nM": 17.3
  }
]

---

Below are compounds with their Ki as measured on PI3Kδ (Homo sapiens (Human), UniProt O00329).
Sequence (O00329 whole entry): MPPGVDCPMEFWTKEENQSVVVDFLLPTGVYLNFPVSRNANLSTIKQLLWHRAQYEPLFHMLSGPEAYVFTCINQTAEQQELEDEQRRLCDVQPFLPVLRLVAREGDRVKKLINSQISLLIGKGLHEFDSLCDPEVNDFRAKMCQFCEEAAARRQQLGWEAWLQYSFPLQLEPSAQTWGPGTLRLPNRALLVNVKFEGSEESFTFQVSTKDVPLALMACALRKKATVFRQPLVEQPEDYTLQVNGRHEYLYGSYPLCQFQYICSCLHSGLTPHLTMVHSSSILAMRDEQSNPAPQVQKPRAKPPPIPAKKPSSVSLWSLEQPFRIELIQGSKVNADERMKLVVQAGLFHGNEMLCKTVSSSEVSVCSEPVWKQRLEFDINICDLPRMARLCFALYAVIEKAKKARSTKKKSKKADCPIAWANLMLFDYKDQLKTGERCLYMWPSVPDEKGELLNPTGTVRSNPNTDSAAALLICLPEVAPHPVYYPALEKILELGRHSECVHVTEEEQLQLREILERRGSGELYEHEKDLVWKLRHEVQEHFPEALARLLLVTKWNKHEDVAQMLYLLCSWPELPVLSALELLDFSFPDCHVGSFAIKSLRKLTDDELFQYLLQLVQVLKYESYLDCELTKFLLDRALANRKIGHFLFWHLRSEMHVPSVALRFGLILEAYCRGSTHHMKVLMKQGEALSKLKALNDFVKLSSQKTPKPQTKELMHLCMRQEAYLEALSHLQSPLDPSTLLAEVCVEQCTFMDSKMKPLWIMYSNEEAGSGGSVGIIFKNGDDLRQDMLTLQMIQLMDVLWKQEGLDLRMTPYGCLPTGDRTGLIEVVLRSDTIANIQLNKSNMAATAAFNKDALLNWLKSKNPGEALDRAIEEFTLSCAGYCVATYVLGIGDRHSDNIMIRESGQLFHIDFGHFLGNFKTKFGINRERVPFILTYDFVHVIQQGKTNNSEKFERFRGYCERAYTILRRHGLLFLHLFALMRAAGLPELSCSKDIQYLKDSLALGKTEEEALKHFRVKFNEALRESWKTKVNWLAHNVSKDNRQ
Sequence (P27986 whole entry partner): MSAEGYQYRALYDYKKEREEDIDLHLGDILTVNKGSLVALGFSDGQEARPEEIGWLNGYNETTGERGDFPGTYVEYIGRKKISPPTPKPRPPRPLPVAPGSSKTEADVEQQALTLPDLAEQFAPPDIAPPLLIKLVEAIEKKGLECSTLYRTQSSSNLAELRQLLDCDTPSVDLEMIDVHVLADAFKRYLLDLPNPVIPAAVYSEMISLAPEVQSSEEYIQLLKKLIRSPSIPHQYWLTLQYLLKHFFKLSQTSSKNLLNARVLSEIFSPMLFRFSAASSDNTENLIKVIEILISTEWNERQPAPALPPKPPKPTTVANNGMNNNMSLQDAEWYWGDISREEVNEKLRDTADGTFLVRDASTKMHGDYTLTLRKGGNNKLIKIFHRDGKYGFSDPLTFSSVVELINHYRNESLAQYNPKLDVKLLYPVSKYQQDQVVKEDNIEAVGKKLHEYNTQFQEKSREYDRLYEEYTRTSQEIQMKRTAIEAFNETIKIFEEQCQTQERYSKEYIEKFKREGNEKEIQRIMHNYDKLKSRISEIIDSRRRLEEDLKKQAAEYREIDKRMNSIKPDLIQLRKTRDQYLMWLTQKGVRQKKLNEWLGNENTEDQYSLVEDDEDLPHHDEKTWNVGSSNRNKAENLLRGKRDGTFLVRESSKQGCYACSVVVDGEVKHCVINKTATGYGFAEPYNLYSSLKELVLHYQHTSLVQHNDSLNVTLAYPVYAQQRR

[
  {
    "smiles_string": "Cc1ncccc1-c1nc2cc(F)ccc2c(N2CC(C)(C)c3ncc(N4CCOCC4)cc32)c1C",
    "Ki, µM": 0.00407
  },
  {
    "smiles_string": "Cc1c(N2CCN(S(C)(=O)=O)CC2)nc2cc(F)cc(F)c2c1N1CC2(CCOCC2)c2ncc(N3CCOCC3)cc21",
    "Ki, µM": 0.0023
  },
  {
    "smiles_string": "Cc1cnc2ccccc2c1N1CC(C)(C)c2ccc(N3CCOCC3)cc21",
    "Ki, µM": 0.654
  },
  {
    "smiles_string": "Cc1cc(Cl)c2nc(C)c(C)c(N3CC(C)(C)c4ccc(N5CCOCC5)cc43)c2c1",
    "Ki, µM": 3.18
  },
  {
    "smiles_string": "COc1cc(OC)c2nc(C)c(C)c(N3CC(C)(C)c4ccc(N5CCOCC5)cc43)c2c1",
    "Ki, µM": 3.97
  },
  {
    "smiles_string": "Cc1nc2ccc(Cl)cc2c(-n2ccc3c(O)cc(-c4cn[nH]c4)cc32)c1C",
    "Ki, µM": 4.11
  },
  {
    "smiles_string": "Cc1c(-c2ccccc2S(C)(=O)=O)nc2cc(F)ccc2c1N1CC(C)(C)c2ccc(N3CCOCC3)cc21",
    "Ki, µM": 0.00443
  },
  {
    "smiles_string": "CC1(C)CN(c2c3c(nc4ccc(Cl)cc24)CCCC3)c2cc(N3CCOCC3)ccc21",
    "Ki, µM": 2.62
  },
  {
    "smiles_string": "Cc1c(-c2ccccc2F)nc2cc(F)ccc2c1N1CC(C)(C)c2ccc(N3CCOCC3)cc21",
    "Ki, µM": 0.197
  },
  {
    "smiles_string": "Cc1c(N2CCOC(C)(C)C2)nc2cc(F)cc(F)c2c1N1CC(C)(C)c2ncc(N3CCOCC3)cc21",
    "Ki, µM": 0.00152
  },
  {
    "smiles_string": "COc1cc2nc(C)c(C)c(N3CC(C)(C)c4ccc(N5CCOCC5)cc43)c2cc1C",
    "Ki, µM": 0.622
  },
  {
    "smiles_string": "Cc1c(-c2cc(F)ccc2F)nc2cc(F)ccc2c1N1CC(C)(C)c2ccc(N3CCOCC3)cc21",
    "Ki, µM": 0.0203
  },
  {
    "smiles_string": "Cc1c(-n2ccccc2=O)nc2cc(F)cc(F)c2c1N1CC2(CCOCC2)c2ccc(N3CCOCC3)cc21",
    "Ki, µM": 0.00464
  },
  {
    "smiles_string": "Cc1nc2ccccc2c(N2CC(C)(C)c3ccc(N4CCOCC4)cc32)c1C",
    "Ki, µM": 0.362
  },
  {
    "smiles_string": "Cc1c(-c2ccccn2)nc2ncccc2c1N1CC2(CCOCC2)c2ncc(N3CCOCC3)cc21",
    "Ki, µM": 0.0659
  },
  {
    "smiles_string": "Cc1c(-c2ccccc2F)nc2cccc(Cl)c2c1N1CC(C)(C)c2ccc(N3CCOCC3)cc21",
    "Ki, µM": 0.89
  },
  {
    "smiles_string": "Cc1c(Cc2cccc(F)c2)nc2cc(F)cc(F)c2c1N1CC(C)(C)c2ncc(N3CCOCC3)cc21",
    "Ki, µM": 0.00287
  },
  {
    "smiles_string": "Cc1ncccc1-c1nc2cc(F)ccc2c(N2CC3(CCOCC3)c3ccc(N4CCOCC4)cc32)c1C",
    "Ki, µM": 0.0145
  },
  {
    "smiles_string": "Cc1c(-c2cccnc2)nc2cc(F)ccc2c1N1CC2(CCOCC2)c2ccc(N3CCOCC3)cc21",
    "Ki, µM": 0.0475
  },
  {
    "smiles_string": "COc1cc(-c2nc3cc(F)cc(F)c3c(N3CC4(CCOCC4)c4ncc(N5CCOCC5)cc43)c2C)ccn1",
    "Ki, µM": 0.00689
  },
  {
    "smiles_string": "Cc1ccnc(-c2nc3ncccc3c(N3CC(C)(C)c4nc(Cl)c(N5CCOCC5)cc43)c2C)c1",
    "Ki, µM": 0.0687
  },
  {
    "smiles_string": "Cc1nc2c(C)cc(Cl)cc2c(N2CC(C)(C)c3ccc(N4CCOCC4)cc32)c1C",
    "Ki, µM": 0.618
  },
  {
    "smiles_string": "Cc1nc2c(C)cccc2c(N2CC(C)(C)c3ccc(N4CCOCC4)cc32)c1C",
    "Ki, µM": 0.044
  },
  {
    "smiles_string": "Cc1c(/C=C/c2ccccc2)nc2cc(F)cc(F)c2c1N1CC(C)(C)c2ncc(N3CCOCC3)cc21",
    "Ki, µM": 0.0883
  },
  {
    "smiles_string": "Cc1c(-c2ccccc2F)nc2cc(F)ccc2c1N1CC2(CCOCC2)c2ccc(N3CCOCC3)cc21",
    "Ki, µM": 0.0254
  },
  {
    "smiles_string": "Cc1c(N2CCOC(C)(C)C2)nc2cc(F)cc(F)c2c1N1CC2(CCOCC2)c2ncc(N3CCOCC3)cc21",
    "Ki, µM": 0.0054
  },
  {
    "smiles_string": "Cc1c(-c2cncc(F)c2)nc2cc(F)cc(F)c2c1N1CC(C)(C)c2ncc(N3CCOCC3)cc21",
    "Ki, µM": 0.00521
  },
  {
    "smiles_string": "COC(=O)N1CCN(c2nc3cc(F)cc(F)c3c(N3CC4(CCOCC4)c4ncc(N5CCOCC5)cc43)c2C)CC1",
    "Ki, µM": 0.00149
  },
  {
    "smiles_string": "Cc1c(N2CCCCC2=O)nc2cc(F)cc(F)c2c1N1CC2(CCOCC2)c2ncc(N3CCOCC3)cc21",
    "Ki, µM": 0.00551
  },
  {
    "smiles_string": "Cc1cc(C)cc(-c2nc3cc(F)ccc3c(N3CC(C)(C)c4ncc(N5CCOCC5)cc43)c2C)c1",
    "Ki, µM": 0.0156
  },
  {
    "smiles_string": "Cc1c(-c2ccccn2)nc2cc(F)ccc2c1N1CC(CO)(CO)c2ccc(N3CCOCC3)cc21",
    "Ki, µM": 0.154
  },
  {
    "smiles_string": "Cc1nc2c(Cl)cccc2c(N2CC3(CCOCC3)c3ncc(N4CCOCC4)cc32)c1C",
    "Ki, µM": 0.00268
  },
  {
    "smiles_string": "Cc1c(-c2ccccn2)nc2ncccc2c1N1CCOc2ccc(N3CCOCC3)cc21",
    "Ki, µM": 0.883
  },
  {
    "smiles_string": "Cc1cc(C)cc(-c2nc3cc(F)ccc3c(N3CC4(CCOCC4)c4ncc(N5CCOCC5)cc43)c2C)c1",
    "Ki, µM": 0.0121
  },
  {
    "smiles_string": "Cc1c(-c2ccccn2)nc2cc(F)ccc2c1N1CC(C)(C)c2ncc(N3CCOCC3)cc21",
    "Ki, µM": 0.00676
  },
  {
    "smiles_string": "Cc1c(-c2cccc(F)c2)nc2ncccc2c1N1CC(C)(C)c2ncc(N3CCOCC3)cc21",
    "Ki, µM": 0.00538
  }
]

Each recorded value in this set is attributed to patent US8765940B2.
